Taken from patent US4332803A.

- protocol-details: Tests III and IV: human metabolism / blood plasma time course following oral dosing with encainide hydrochloride
- test-settings: human, in vivo, po, 75 mg
attribute-measured: half-life

compound	measurement
CN1CCCCC1CCc1ccccc1NC(=O)c1ccc(O)cc1 (stereo not shown) [Compound No. 89, O-demethylencainide]	4 to 6 h

---

Readings of TD50 for the listed compounds
- protocol-details: Test II: approximation of the oral toxicity in mice (ALD50/ATD50)
- test-settings: mouse, in vivo, po
- Text: II. AlD50 /ATD50 mouse treated orally; ALD50 is the lethal dose for half the animals; ATD50 is the approximate lowest dose where signs of physiologic or neurologic deficit appear in half the animals, expressed as mg/kg body weight.

compound	TD50
COc1cc(C(=O)Nc2ccccc2CCC2CCCCN2C)ccc1O (stereo not drawn) [Compound A]	31.3 to 62.5 mg/kg
COc1ccc(C(=O)Nc2ccccc2CCC2CCCCN2)cc1 (stereo not drawn) [compound 139, N-demethylencainide]	15.7 mg/kg
COc1cccc(C(=O)Nc2ccccc2CCC2CCCCN2C)c1 (stereo not drawn) [compound 108]	10 to 25 mg/kg
CN1CCCCC1CCc1ccccc1NC(=O)c1ccc(O)cc1 (stereo not drawn) [Compound No. 89, O-demethylencainide]	5 to 10 mg/kg
COc1ccc(C(=O)Nc2ccccc2CCC2CCCCN2C)cc1OC (stereo not drawn) [compound 109]	25 mg/kg
COc1ccc(C(=O)Nc2ccccc2CCC2CCCCN2C)cc1 (stereo not drawn) [Compound No. 107, encainide]	5 to 10 mg/kg
